# reported protein stability index; entries follow
B1: BTBD1 (parent)
chain: TSAEIELPDVEPAAFLALLRFLYS

Variants of: B1
test-description: protein stability index of a GFP-peptide fusion (GPS, HEK-293T) (PSI 1-6); higher = more stable;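 also: lentivirally expressed fusions sorted by FACS into six bins by GFP to DsRed ratio, PSI derived from sequencing read proportions per bin multiplied by bin number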
stated-conditions: c terminus: a fixed tail appended

L22T | 1.98

Name the reported protein stability index value associated with the variant A14Y
1.8

Name the reported protein stability index value associated with the variant A14K
1.63

Name the reported protein stability index value associated with the variant A3L
1.53

Name the reported protein stability index value associated with the variant T1R
1.9

Name the reported protein stability index value associated with the variant E6L
1.73

Name the reported protein stability index value associated with the variant A3F
1.58

Name the reported protein stability index value associated with the variant A17C
1.53

Name the reported protein stability index value associated with the variant A17T
2.38

Name the reported protein stability index value associated with the variant Y23V
2.37

Name the reported protein stability index value associated with the variant A13C
1.88

Name the reported protein stability index value associated with the variant R20C
1.19

Name the reported protein stability index value associated with the variant I5Q
2.4

Name the reported protein stability index value associated with the variant E11G
2.44
